# Test system: Oculimacula yallundae
# Test Method Notes: Fungicidal activity against W-type Oculimacula yallundae assessed as inhibition of mycelial growth at 20 degC for 14 days
# Assay type: functional, organism-based
Assay Endpoint: EC50 (ppm)

| Compound | Assay Value |
| --- | --- |
| CNC(=O)/C(=N/OC)c1ccccc1Oc1cc(C)ccc1C | 0.13 |
| CO/C=C(/C(=O)OC)c1ccccc1Oc1cc(Oc2ccccc2C#N)ncn1 | 3.2 |
| CC(C)(C)C(=O)C(Oc1ccc(Cl)cc1)n1cncn1 (stereo not drawn) | 7.81 |
| CNC(=O)/C(=N/OC)c1ccccc1Oc1ncc(Cl)cc1C(F)(F)F | 0.33 |
| COC(=O)NC(=S)Nc1ccccc1NC(=S)NC(=O)OC [THIOPHANATE METHYL] | 1.18 |
| CCCN(CCOc1c(Cl)cc(Cl)cc1Cl)C(=O)n1ccnc1 | 0.06 |
| OC(c1ccc(Cl)cc1)(c1cncnc1)c1ccccc1Cl (stereo not drawn) | 1.02 |
| CO/N=C(/C(=O)OC)c1ccccc1COc1ccccc1C | 0.79 |

* * *

# Tested on: Blumeria graminis f. sp. tritici
# Test Method Notes: Fungicidal activity against Blumeria graminis f. sp. tritici in 2 weeks old wheat seedlings assessed as control of powdery mildew at 0.5 ppm pretreated 24 hr before by foliar application at 22 +/- 2 degC under greenhouse and leaf area measured after 10 days of inoculation
# Type: functional
Assay Endpoint: Activity (%)

| Molecule | Uom | Assay Value |
| --- | --- | --- |
| OC(c1ccc(Cl)cc1)(c1cncnc1)c1ccccc1Cl (configuration not stated) [FENARIMOL] | % | 50 |
| CNC(=O)/C(=N/OC)c1ccccc1Oc1cc(C)ccc1C | % | 94 |
| CO/C=C(/C(=O)OC)c1ccccc1Oc1cc(Oc2ccccc2C#N)ncn1 [AZOXYSTROBIN] | % | 35 |
| CC(C)(C)C(=O)C(Oc1ccc(Cl)cc1)n1cncn1 (configuration not stated) [TRIADIMEFON] | % | 30 |
| CNC(=O)/C(=N/OC)c1ccccc1Oc1ncc(Cl)cc1C(F)(F)F | % | 89 |
| CCCN(CCOc1c(Cl)cc(Cl)cc1Cl)C(=O)n1ccnc1 [PROCHLORAZ] | % | 23 |
| CO/N=C(/C(=O)OC)c1ccccc1COc1ccccc1C [KRESOXIM-METHYL] | % | 39 |

* * *

# Test system: Oculimacula yallundae
# Test Method Notes: Fungicidal activity against W-type Oculimacula yallundae assessed as inhibition of mycelial growth at 20 degC for 14 days
# Format: functional, organism-based
# Run Conditions: Oculimacula yallundae, 336 h
Assay Endpoint: MIC

| Molecule | Assay Endpoint | Assay Value |
| --- | --- | --- |
| CO/N=C(/C(=O)OC)c1ccccc1COc1ccccc1C | MIC | < 125 µg/mL |
| OC(c1ccc(Cl)cc1)(c1cncnc1)c1ccccc1Cl (stereo not given) | MIC | 25 µg/mL |
| CC(C)(C)C(=O)C(Oc1ccc(Cl)cc1)n1cncn1 (stereo not given) | MIC | < 125 µg/mL |
| CNC(=O)/C(=N/OC)c1ccccc1Oc1cc(C)ccc1C | MIC | < 125 µg/mL |
| CCCN(CCOc1c(Cl)cc(Cl)cc1Cl)C(=O)n1ccnc1 | MIC | 5 µg/mL |

* * *

# Tested on: Blumeria graminis f. sp. tritici
# Test Method Notes: Fungicidal activity against Blumeria graminis f. sp. tritici in 2 weeks old wheat seedlings assessed as control of powdery mildew at 125 ppm pretreated 24 hr before by foliar application at 22 +/- 2 degC under greenhouse and leaf area measured after 10 days of inoculation
# Assay type: functional

| Compound | Measurement Target | Uom | Activity |
| --- | --- | --- | --- |
| CCCN(CCOc1c(Cl)cc(Cl)cc1Cl)C(=O)n1ccnc1 [PROCHLORAZ] | Blumeria graminis f. sp. tritici | % | 92 |
| CC(C)(C)C(=O)C(Oc1ccc(Cl)cc1)n1cncn1 (stereo not given) [TRIADIMEFON] | Blumeria graminis f. sp. tritici | % | 99 |
| OC(c1ccc(Cl)cc1)(c1cncnc1)c1ccccc1Cl (stereo not given) [FENARIMOL] | Blumeria graminis f. sp. tritici | % | 98 |
| CO/N=C(/C(=O)OC)c1ccccc1COc1ccccc1C [KRESOXIM-METHYL] | Blumeria graminis f. sp. tritici | % | 100 |
| CO/C=C(/C(=O)OC)c1ccccc1Oc1cc(Oc2ccccc2C#N)ncn1 [AZOXYSTROBIN] | Blumeria graminis f. sp. tritici | % | 95 |
